Tested on: MS2 coat protein
test_summary: apparent KD of MS2 coat protein; designed switch direction (-1 OFF switch, 1 ON switch): -1; higher = weaker reporter binding
assay_conditions: input ligand: FMN 200 uM
property: apparent KD of MS2 coat protein (nM)
One number for each entry, in nM.

Provide apparent KD of MS2 coat protein values for the following items, in order.
1. AGAUCUAGGACAGGAUAUAUGGAUGUCUUCAUCGAAGAUGAAGACAUUACAUGAGGAUCACCCAUGUAGAAGGGUCCUAGAUCA [Omei Exc(NG) 2Av3] (Eterna round: R96, puzzle: Exclusion NG 2)
2. CUGCCGAGAGGAUAUACUAAGCGAAGAGCCUCAUAAAAGUUACAUGAGGAUCACCCAUGUAGAAGGCUUGGGAG [Eternabot (Original) Solution 38] (Eterna round: R97, puzzle: Exclusion 2)
3. AUAAUACAUGAGGAUCACCCAUGUGAGGAUAUACGACUCCAACCUAACAGCUUGGACCGUAGAAGGCACAAGGG [Exclusion 1 (MOD1.2 Esqu)] (Eterna round: R97, puzzle: Exclusion 1)
4. AGCCUCGCUGUUAGGAUAUGCAUGGAUAAGCUCCGGCAGAAGGGACAUGAGGAUCACCCAUGUAACGUAGUUUA [BmEX4 B.4] (Eterna round: R97, puzzle: Brourd's mod of Exclusion 4)
5. UUAAUACAUGAGGAUCACCCAUGUCAGGAUAUUACGAUUACUCCGUGCCCAUUGAGAGUGAGAAGGGAUAUGGA [Eternabot (L2) Solution 58] (Eterna round: R97, puzzle: Exclusion 1)
6. UUUUUAUAUGAAGGAUAUACUUAACAUGAGGAUCACCCAUGUGGUGUUGUGAGUGAGUGAGUUUAGUAGAAGGUCAAUUAUAUU [JMF's solution 13] (Eterna round: R96, puzzle: Exclusion NG 2)
7. AGGUGCUUCUGGAAACAUGAGGAUCACCCAUGUUGAGUUAGCGAGGAUAUCGGUAACAAUUGUUAUGAGAAGGCGCAAACCAGA [Ex NG3 #36] (Eterna round: R96, puzzle: Exclusion NG 3)

[17.3, 104, 54.5, 31.8, 19.7, 574, 17]

###

Exercise: for every item that follows, state its recorded apparent KD of MS2 coat protein.
Tested on: MS2 coat protein
test_summary: apparent KD of MS2 coat protein; higher = weaker reporter binding
assay_conditions: Eterna round: R107; input ligand: theophylline 2 mM
Numbers only, in nM.

Example results:
chain_sequence: CCGGCCAAUUAGAAAUUAAUUGGCCGGAAACGAGGACCGGUACGGCCGCCACUCGUGGCGGGAGAAACAUGAGGAUCACCCAUGU
property: apparent KD of MS2 coat protein
reading: 53
//
chain_sequence: UCAUGCAGGUCGGCCGCCACUACACACAUGAGGAUCACCCAUGUAGUUACUGGGUGAAGUGGCAGUAGGACCGGGACCUGCACAU [Brourdmod16]
property: apparent KD of MS2 coat protein
reading: 452
//
chain_sequence: UCGCUCUGGGUGAAUCCCAGAGAUGUGGAAGGAGCGGAGGAAACUCCAGGUAGGUCGCCAUCGAACAUGAGGAUCACCCAUGUAC [Same State - Arginine A (Freestyle 28)]
property: apparent KD of MS2 coat protein
reading: 66.4

Provide apparent KD of MS2 coat protein values for the following items, in order.
1. AGUUACUCGAACAUGGUUGACGAGUGGCAACGAGGACCGGUACGGCCGCCACUCGAAUAAACAUGAGGAUCACCCAUGUACAAAU [T''-M'-T'-T-MS2 - Design 10.b]
2. UAUCGUCAGACGGCCGCCACUAGAACAUGAGGAUCACCCAUGUAAGUGGCUGGUUCAUGGGUGUCUAGGACCGGGUCUGACGAAU [(Trp1)-(Ms2)-(T)'-(M)'-(Trp2)_Design20]
3. GGAUAGGACACGGCCGCCACUAGCUAGGAUACUAGCAACAUUUGGGUACAUGAGGAUCACCCAUGUAGGACCGGGUGUCCUAUCG
4. AAUUACAUGAGGAUCACCCAUGUGGCACAACGAGGACCGGUACGGCCGCCACUCGGUGCUGUACCACAAAACAUGCACGGGAAAG [theeternabot_sameState_MS2_Trp_A_6]
5. UCGCUCUGGGUGAAUCCCAGAGAUGUGGAAGGAGCGGACGAAAGUCCAGGUAGGUCGCCAUCGAACAUGAGGAUCACCCAUGUAC [Same State - Arginine A (Freestyle 26)]
6. AAUCAUAACUGAAGGAGCGUCUAUAUUACAUGAGGAUCACCCAUGUUUAUAUGGUAUUAUAGACAGGUAGGUCGCAGAUUUUUUA [JR_SSArginiB_Sub017]

160
17.6
85.5
39
75.6
18.7

Provide apparent KD of MS2 coat protein values for the following items, in order.
1. AGACGAGAAGAGGUUUACCCAUGUACAGAAGGAGCGUCGUUGACGACAGGUAGGUCGCUGGAAACAUGAGGAUCACCCAUGUUGA [#06 Exclusion - Arginine A]
2. AGGUAUGAUCCGGAUACCAGCGAACAUGAGGAUCACCCAUGUGACCUGAGAUAGGCUCUACGCCCUUGGCAGCCGCGAUCGCAGA [Same State Theophylline B GF11]
3. AAUCGUAAGGCGGCCGCCACUACACAUGAGGAUCACCCAUGUCUCGCGGGCUUGCGUUGGGAUAGUAGGACCGGGCCAGUAAUAA [Exclusion - Tryptophan B (Freestyle 13)]
4. AUUCAUGGAAACAUGACAUACAUAUCCGGUCGAGGACCGGUACGGCCGCCACUCGUUUGGAGGCACAUGAGGAUCACCCAUGUUA [SS Tryp A #8]
5. ACGAUAGCACCUGAGGAUCACCCAGGUGAUACCAGCCUGGAAACAGGCCCUUGGCAGCACCUAAAAUAAAGGUAACUAUCGAAUA [TheoAX6 #MicroSwitchBubble #AlternativeMS2]
6. CUCCCGUGGUCGGCCGCCACUGGAGGCCUUGCGCGACAUGAGGAUCACCCAUGUGUGCCCGGCGUCAGGACCGGGAUCGCGUGAG [#1 Same State - Tryptophan B Attempt #12 (HarryS)]

59.7
9.63
28.3
25.9
105
19.7

For GGACUAACCAGAAGGAGCGGCACGCAGAAACUGCAAAAUCCUCCACACGAGGAUCACCCGUGUCAGGUAGGUCGCUGGUUAGUCG the sequence record lists apparent KD of MS2 coat protein as 52.5

Source of measurements: the supplement of paper PMC9170038
